# measured target: High affinity choline transporter 1 (Homo sapiens)
# Sequence (Q9GZV3 whole entry): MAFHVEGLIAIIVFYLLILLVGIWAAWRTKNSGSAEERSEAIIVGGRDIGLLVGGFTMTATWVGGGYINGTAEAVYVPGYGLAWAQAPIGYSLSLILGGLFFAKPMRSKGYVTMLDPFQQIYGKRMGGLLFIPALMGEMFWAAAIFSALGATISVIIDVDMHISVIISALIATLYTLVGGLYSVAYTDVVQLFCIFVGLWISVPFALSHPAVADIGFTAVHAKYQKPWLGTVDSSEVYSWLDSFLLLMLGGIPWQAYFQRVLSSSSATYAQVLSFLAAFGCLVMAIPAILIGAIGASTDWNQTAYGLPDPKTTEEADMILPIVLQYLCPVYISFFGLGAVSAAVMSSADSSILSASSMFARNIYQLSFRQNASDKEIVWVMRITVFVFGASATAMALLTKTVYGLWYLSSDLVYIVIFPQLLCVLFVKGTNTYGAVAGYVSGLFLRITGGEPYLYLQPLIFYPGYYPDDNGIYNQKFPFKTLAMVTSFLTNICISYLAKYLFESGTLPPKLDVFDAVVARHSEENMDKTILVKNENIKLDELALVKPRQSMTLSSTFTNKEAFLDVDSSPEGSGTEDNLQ
# experiment summary: human choline transporter blockers, potency – cell-based, 5-point CRC, membrane potential dye, dose response (AID 504840)
# Type: functional
The source made the active and inactive calls.

>  <record smiles>
O=C(N/N=C1/CCC/C1=C(/O)C(F)(F)F)c1ccccc1O

>  <measured target>
High affinity choline transporter 1 (Homo sapiens)

>  <IC50>
2.27 µM (active)

$$$$
>  <record smiles>
CN(Cc1ccccc1)c1nc(N)nc(Cl)c1C=O

>  <measured target>
High affinity choline transporter 1 (Homo sapiens)

>  <IC50>
15.1 µM (active)

$$$$
>  <record smiles>
CCc1ccccc1NC(=O)c1ccc(CN2CCC(Cc3ccccc3)CC2)cc1

>  <measured target>
High affinity choline transporter 1 (Homo sapiens)

>  <IC50>
13.8 µM (active)

$$$$
>  <record smiles>
Cc1ccc(-c2csc(NC(=O)c3ccccc3Cl)c2C(=O)O)cc1

>  <measured target>
High affinity choline transporter 1 (Homo sapiens)

>  <IC50>
2.27 µM (active)

$$$$
>  <record smiles>
C/C(=N\NC1=NCCN1)c1ccccc1

>  <measured target>
High affinity choline transporter 1 (Homo sapiens)

>  <IC50>
12.9 µM (active)

$$$$
>  <record smiles>
CCc1nnc(NS(=O)(=O)c2ccc(NC(=O)c3cccc(Br)c3)cc2)s1

>  <measured target>
High affinity choline transporter 1 (Homo sapiens)

>  <IC50>
13.2 µM (active)

$$$$

----------
# measured target: DNA repair protein RAD52 homolog (Homo sapiens)
# Sequence (P43351 whole entry): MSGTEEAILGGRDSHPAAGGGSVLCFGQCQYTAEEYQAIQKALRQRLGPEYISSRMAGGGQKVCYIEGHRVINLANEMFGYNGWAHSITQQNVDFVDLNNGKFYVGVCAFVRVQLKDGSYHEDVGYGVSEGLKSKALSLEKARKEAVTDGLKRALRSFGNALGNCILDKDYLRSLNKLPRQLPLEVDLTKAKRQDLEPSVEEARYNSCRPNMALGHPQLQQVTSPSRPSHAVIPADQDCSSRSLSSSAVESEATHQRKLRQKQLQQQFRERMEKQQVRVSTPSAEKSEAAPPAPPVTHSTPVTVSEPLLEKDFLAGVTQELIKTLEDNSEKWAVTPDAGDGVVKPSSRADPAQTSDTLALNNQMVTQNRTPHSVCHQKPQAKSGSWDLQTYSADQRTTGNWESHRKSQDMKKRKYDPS
# Type: functional, biochemical
Activity calls are given as the source filed them.
AC50 by entry:
readout kind: AC50

>  <compound>
CCCCCCCCCCCCCCCC[N+](C)(C)CCl

>  <readout kind>
AC50

>  <recorded measurement>
5.5 µM (active)

$$$$
>  <compound>
CN1/C(=C/C=C/c2n(C)c3cc([N+](=O)[O-])c([N+](=O)[O-])cc3[n+]2C)C(C)(C)c2ccccc21

>  <readout kind>
AC50

>  <recorded measurement>
18.4 µM (active)

$$$$
>  <compound>
C[C@]12CC[C@H](O)CC1=CCC1C2CC[C@@]2(C)C1CC[C@@H]2NC(=O)[C@@H](N)Cc1c[nH]cn1 (some centres undefined)

>  <readout kind>
AC50

>  <recorded measurement>
0.952 µM (active)

$$$$
>  <compound>
CC(=O)c1ccc(Nc2nc(C(N)Cc3ccc(N)cc3)cs2)cc1 (centres undefined)

>  <readout kind>
AC50

>  <recorded measurement>
30.4 µM (active)

$$$$

----------
# measured target: Beta Lactamase (Pseudomonas aeruginosa, UniProt Q932Y6)
# Sequence (Q932Y6 whole entry): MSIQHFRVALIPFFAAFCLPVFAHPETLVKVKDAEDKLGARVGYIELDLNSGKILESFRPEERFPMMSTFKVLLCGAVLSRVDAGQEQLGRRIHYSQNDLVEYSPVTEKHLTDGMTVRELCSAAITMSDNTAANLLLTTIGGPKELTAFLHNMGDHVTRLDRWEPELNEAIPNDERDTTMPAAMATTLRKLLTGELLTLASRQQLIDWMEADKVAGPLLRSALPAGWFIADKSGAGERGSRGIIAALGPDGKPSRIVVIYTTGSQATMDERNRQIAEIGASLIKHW
# experiment summary: BLA reporter interference, concentration series – BLA reporter cells, FRET fluorescence, artefact control for TLR9-MyD88 binding inhibitor project, dose response (AID 588341);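 further: cell based assay in CHO-K1 cells stably expressing beta-lactamase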
# Format: cell-based
The source made the active and inactive calls.
readout kind: IC50

>  <record smiles>
CCCC(=O)NC1=C(Cl)C(=O)c2ccccc2C1=O

>  <readout kind>
IC50

>  <recorded measurement>
6.78 µM (active)

$$$$
>  <record smiles>
COC(=O)c1ccc(NC(=O)c2nc(S(=O)(=O)Cc3cccc(C)c3)ncc2Cl)cc1

>  <readout kind>
IC50

>  <recorded measurement>
10.7 µM (inactive)

$$$$
>  <record smiles>
Cc1cccc(N2C(=O)/C(=C\c3ccc(OC(F)F)cc3)c3ccccc3C2=O)c1

>  <readout kind>
IC50

>  <recorded measurement>
3.9 µM (active)

$$$$
>  <record smiles>
COc1ccc(OC)c(/C=C/c2nc3ccccc3nc2O)c1

>  <readout kind>
IC50

>  <recorded measurement>
8.5 µM (active)

$$$$
